- Test description: Qualitative solubility of test peptides in 0.5 N saline
- Format: physicochemical
- Applied conditions: pH 6.5, 20° C. (table title)
Readout type: solubility

Ac-GKASQFAKTA-OH [Ac-peptide 252, reference compound] :: < 30 mg/mL
H-GAQASKTAAKGE-OH [peptide 237, GAQASKTAAKGE] :: > 80 mg/mL
Ac-TAAKGEAA-OH [Ac-peptide 143] :: > 230 mg/mL
Ac-GAQFSKTAAKGE-OH [Ac-peptide 79] :: > 100 mg/mL
Ac-SKTAAKGE-NH2 [Ac-peptide 141-NH2] :: > 200 mg/mL
H-GAQFSKTAAK-OH [peptide 106, GAQFSKTAAK] :: > 70 mg/mL

Next substance, please.
Request: Retrieve solubility measured for Ac-AQFSKTAAKGE-NH2 [Ac-peptide 93-NH2] and print it.
Response: > 90 mg/mL

Cited source for all entries: patent US9598463B2
